assay: Ratio of Kapp(NMS)/Kapp(OXO-M)
endpointName: Ratio
I'd appreciate a reply containing only the number, no unit.

## Input // query Ratio value for entry C[N+](C)(C)CCOC(N)=O
## Output 4500

## Input Thanks! And Cc1noc([C@H]2CN3CC[C@@H]2C3)n1 ?
## Output 1400

## Input Thanks! And Cc1noc([C@H]2CN3CC[C@H]2C3)n1 ?
## Output 1200

## Input Thanks! And Cc1noc([C@@H]2CN3CC[C@@H]2C3)n1 ?
## Output 1200

====

Consider the following compounds; for each one, report its EC50.
Molecular target: Muscarinic acetylcholine receptor M1 (Rattus norvegicus)
Sequence (P08482 whole entry): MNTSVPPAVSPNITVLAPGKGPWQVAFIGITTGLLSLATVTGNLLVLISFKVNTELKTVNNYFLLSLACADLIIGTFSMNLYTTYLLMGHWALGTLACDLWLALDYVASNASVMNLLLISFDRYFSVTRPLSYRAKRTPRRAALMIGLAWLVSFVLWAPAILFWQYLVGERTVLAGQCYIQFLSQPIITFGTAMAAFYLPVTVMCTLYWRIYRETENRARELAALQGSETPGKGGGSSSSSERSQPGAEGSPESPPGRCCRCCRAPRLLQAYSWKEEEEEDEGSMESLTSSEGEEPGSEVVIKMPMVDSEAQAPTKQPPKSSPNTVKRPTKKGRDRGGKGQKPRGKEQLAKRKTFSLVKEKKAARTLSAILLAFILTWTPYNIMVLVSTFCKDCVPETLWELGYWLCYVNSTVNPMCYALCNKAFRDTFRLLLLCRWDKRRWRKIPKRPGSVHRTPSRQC
Test: Compound was tested in vitro for depolarizing response on the rat superior cervical ganglion (mediated by Muscarinic M1 receptor)
Format: functional, tissue-based
Record the value in nM, omitting the unit from your answer.

## Input // query EC50 value for entry Cc1noc([C@H]2CN3CC[C@H]2C3)n1
## Output 2.4

## Input Thanks! And Cc1noc([C@@H]2CN3CC[C@@H]2C3)n1 ?
## Output 7
